Molecular target: human CD3 on cells (human PBMC; Jurkat TCR/CD3 NFAT reporter cells) (human, UniProt P07766 23-207; P04234 22-171; P09693 23-182)
Sequence (P07766 23-207, chain 1 of 3): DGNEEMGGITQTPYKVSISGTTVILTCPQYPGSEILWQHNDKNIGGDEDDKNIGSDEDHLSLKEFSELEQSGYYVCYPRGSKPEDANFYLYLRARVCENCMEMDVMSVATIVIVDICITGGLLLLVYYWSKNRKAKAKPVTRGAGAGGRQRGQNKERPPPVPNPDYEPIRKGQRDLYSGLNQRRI
Sequence (P04234 22-171, chain 2 of 3): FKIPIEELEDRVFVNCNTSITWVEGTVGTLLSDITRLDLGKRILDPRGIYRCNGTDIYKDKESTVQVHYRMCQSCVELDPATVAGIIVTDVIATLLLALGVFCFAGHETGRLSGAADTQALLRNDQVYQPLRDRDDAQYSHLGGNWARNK
Sequence (P09693 23-182, chain 3 of 3): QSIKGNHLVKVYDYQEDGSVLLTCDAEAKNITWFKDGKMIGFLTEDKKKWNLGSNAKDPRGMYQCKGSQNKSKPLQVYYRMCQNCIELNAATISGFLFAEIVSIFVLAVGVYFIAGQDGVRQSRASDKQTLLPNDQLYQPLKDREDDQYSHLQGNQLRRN
Experiment: cell-based or functional assay
Recorded CD3-NFAT Activity by CD3 mAb, one value per entry.

Binder	CD3-NFAT Activity by CD3 mAb
Hu192A7B9-2 (antibody, V domains shown, humanized mAb) VH: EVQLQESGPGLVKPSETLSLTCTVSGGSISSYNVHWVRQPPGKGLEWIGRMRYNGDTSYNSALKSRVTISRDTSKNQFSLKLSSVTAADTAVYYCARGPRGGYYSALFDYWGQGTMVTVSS VL: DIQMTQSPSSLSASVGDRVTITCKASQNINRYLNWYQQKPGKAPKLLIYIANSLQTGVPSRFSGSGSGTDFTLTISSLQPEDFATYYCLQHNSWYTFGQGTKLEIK	≤ 50 % SP34
Hu153A6B1-8 (antibody, V domains shown, humanized mAb) VH: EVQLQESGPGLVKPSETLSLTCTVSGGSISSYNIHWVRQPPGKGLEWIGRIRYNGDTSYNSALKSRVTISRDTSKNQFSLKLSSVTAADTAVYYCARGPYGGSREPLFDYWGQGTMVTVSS VL: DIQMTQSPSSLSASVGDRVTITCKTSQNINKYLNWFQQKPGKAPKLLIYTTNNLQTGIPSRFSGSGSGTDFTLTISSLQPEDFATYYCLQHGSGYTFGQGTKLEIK	> 50 % SP34
Hu192A7B9-14 (antibody, V domains shown, humanized mAb) VH: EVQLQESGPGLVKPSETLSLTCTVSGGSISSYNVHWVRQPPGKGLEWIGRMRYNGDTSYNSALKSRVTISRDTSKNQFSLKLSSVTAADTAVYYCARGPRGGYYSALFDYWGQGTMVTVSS VL: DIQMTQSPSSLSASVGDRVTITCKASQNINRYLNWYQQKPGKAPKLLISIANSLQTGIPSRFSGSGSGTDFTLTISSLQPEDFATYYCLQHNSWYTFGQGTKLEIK	> 50 % SP34
Hu155A9B1-5 (antibody, V domains shown, humanized mAb; also called 155z5) VH: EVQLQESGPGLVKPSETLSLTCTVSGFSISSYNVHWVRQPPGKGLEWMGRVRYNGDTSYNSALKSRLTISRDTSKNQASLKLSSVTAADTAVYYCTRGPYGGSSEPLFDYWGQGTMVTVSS VL: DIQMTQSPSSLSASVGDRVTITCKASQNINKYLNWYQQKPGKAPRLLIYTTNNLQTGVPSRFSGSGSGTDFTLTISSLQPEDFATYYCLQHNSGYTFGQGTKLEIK	> 50 % SP34
Hu155A9B1-8 (antibody, V domains shown, humanized mAb; also called 155z8) VH: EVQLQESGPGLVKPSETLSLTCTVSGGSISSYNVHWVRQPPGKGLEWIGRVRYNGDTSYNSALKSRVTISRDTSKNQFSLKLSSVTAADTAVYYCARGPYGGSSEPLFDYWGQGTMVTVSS VL: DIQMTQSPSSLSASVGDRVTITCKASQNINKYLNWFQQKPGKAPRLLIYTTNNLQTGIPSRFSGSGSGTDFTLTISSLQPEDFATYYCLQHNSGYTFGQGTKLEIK	≤ 50 % SP34
Hu155A9B1-16 (antibody, V domains shown, humanized mAb; also called 155z16) VH: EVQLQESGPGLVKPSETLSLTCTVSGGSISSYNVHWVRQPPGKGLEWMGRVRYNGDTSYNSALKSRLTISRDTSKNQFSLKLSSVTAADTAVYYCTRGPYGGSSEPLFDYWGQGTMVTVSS VL: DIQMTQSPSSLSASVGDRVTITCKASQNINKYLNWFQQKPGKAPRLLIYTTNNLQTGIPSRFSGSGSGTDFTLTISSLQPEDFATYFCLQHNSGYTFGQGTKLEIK	≤ 50 % SP34
Hu192A7B9-23 (antibody, V domains shown, humanized mAb) VH: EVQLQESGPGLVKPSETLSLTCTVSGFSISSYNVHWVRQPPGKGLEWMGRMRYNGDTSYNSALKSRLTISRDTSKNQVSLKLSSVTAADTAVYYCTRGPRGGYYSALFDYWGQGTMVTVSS VL: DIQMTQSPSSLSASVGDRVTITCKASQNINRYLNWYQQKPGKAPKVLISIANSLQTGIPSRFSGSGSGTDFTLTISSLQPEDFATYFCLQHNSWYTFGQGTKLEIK	> 50 % SP34
Hu153A6B1-1 (antibody, V domains shown, humanized mAb) VH: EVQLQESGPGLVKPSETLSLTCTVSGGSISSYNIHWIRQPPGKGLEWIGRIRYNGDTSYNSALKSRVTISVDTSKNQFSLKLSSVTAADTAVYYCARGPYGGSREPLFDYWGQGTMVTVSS VL: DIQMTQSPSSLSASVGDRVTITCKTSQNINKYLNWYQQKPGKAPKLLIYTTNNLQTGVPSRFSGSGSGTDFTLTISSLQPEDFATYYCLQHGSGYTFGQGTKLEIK	≤ 50 % SP34
Hu153A6B1-5 (antibody, V domains shown, humanized mAb) VH: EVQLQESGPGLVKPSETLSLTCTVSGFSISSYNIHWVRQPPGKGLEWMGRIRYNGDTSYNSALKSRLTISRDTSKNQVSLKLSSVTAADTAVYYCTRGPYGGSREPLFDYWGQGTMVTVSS VL: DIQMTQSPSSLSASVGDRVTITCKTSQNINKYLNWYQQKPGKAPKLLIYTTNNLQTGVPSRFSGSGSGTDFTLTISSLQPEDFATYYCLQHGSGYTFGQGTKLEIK	> 50 % SP34
Hu153A6B1-2 (antibody, V domains shown, humanized mAb) VH: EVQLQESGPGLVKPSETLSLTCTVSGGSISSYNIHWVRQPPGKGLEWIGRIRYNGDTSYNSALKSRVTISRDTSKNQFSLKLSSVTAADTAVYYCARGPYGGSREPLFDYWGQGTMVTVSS VL: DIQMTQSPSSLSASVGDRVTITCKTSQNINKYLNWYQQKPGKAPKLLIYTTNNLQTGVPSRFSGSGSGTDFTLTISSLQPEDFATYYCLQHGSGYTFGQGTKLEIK	≤ 50 % SP34
